B1: SMTNL2 (parent)
chain: ETAAGKGKGEARARLKRSQSFGVA

Variants of: B1
ASSAY NOTES: protein stability index of a GFP-peptide fusion (GPS, HEK-293T) (PSI 1-6); higher = more stable;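 note: lentivirally expressed fusions sorted by FACS into six bins by GFP to DsRed ratio, PSI derived from sequencing read proportions per bin multiplied by bin number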
SETUP CONDITIONS: c terminus: a fixed tail appended
Reported protein stability index values are given for each entry in this list.
Simply state the number, no unit and no words.

Request: // query protein stability index value for entry A24G
Result: 4.6

Request: Param item: R17A
Result: 4.14

***
Request: // query protein stability index value for entry A24Y
Result: 3.72

Request: Param item: K6R
Result: 4.39

Request: Param item: A13P
Result: 4.7

Request: Param item: K16C
Result: 3.77

Request: Param item: V23A
Result: 5.1

Request: Param item: A13S
Result: 4.67

Request: Param item: E10W
Result: 3.4

Request: Param item: K8Q
Result: 5.13

Request: Param item: S18L
Result: 3.49

Request: Param item: R17H
Result: 4.54

Request: Param item: E10Y
Result: 3.35

Request: Param item: T2Y
Result: 3.83

Request: Param item: K8R
Result: 4.38

Request: Param item: S18T
Result: 4.22

Request: Param item: F21M
Result: 4.3

Request: Param item: A24C
Result: 4.28

Request: Param item: G9M
Result: 3.95

Request: Param item: G9N
Result: 4.56

Request: Param item: G5M
Result: 3.93

Request: Param item: E1Q
Result: 4.03

The measured values listed here are drawn from the supplement of paper PMC10567573.
